Record form. Attribute: concentration at which maximal activity is observed. Fill in for each entry.
# subject of test: human PPARα (Homo sapiens)
# Construct: expressed in transfected cells; host or cells: RK13 or COS-7
# Sequence (Q07869 239-466 limits assumed): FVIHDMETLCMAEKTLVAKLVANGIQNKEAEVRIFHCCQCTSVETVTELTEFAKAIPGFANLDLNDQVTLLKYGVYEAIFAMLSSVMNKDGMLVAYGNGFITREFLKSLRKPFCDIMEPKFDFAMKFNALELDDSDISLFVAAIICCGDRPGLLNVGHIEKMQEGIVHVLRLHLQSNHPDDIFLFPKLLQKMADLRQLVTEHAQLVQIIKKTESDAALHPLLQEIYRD
# measurement description: PPARα/Gal4 transactivation system
# Type: cell-based
# protocol conditions: PPAR/Gal4 transactivation system
Output spec: scalar in µM, unitless text.

Noted for "Cc1cc(/C=C/C(=O)c2ccc(OC(F)(F)F)cc2)cc(C)c1OC(C)(C)C(=O)O" : its concentration at which maximal activity is observed reads 0.3

Noted for "CCCOc1ccc(C(=O)/C=C/c2cc(C)c(OC(C)(C)C(=O)O)c(C)c2)cc1" : its concentration at which maximal activity is observed reads 0.03

Noted for "Cc1cc(/C=C/C(=O)c2ccc(C(F)(F)F)cc2)cc(C)c1OC(C)(C)C(=O)O" : its concentration at which maximal activity is observed reads 0.3

Noted for "Cc1cc(/C=C/C(=O)c2ccc(SC(F)(F)F)cc2)cc(C)c1OC(C)(C)C(=O)O" : its concentration at which maximal activity is observed reads 0.03

FYI, the data here is from patent US7566737B2.
